Target: human peripheral type cannabinoid receptor (hCB2) (Homo sapiens, UniProt P34972)
Construct: expressed in transfected cells; host or cells: CHO cells
Sequence (P34972 whole entry): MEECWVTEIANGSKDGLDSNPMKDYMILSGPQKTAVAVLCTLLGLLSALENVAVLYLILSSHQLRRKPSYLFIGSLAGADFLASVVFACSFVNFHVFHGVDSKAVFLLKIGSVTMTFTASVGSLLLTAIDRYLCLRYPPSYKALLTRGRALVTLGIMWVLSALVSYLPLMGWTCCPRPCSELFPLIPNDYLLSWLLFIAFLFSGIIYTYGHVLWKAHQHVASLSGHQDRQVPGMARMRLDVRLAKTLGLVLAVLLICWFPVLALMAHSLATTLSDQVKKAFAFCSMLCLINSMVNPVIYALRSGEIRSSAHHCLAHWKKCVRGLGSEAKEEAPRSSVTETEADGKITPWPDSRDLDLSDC
Assay: Binding assay (in vitro), [3H]Win55212-2 displacement, membrane fractions of human CB2-CHO
Settings: Ki value Peripheral type receptor (S), hCB2 expressed in CHO cells, [3H]Win55212-2 2 nM, 30° C. 90 minutes
In plain terms, low Ki, meaning strictly below 200 pM, gives y, and everything else gives n.

# smiles_repr, assigned_category
rows = [
    ("CCCCCOc1c(OC)ccc2cc(C(=O)NCCc3ccc(O)cc3)c(=O)n(C)c12", "n"),
    ("CCCCCOc1c(OC)ccc2cc(C(=O)NCCc3ccc(F)cc3)c(=O)[nH]c12", "y"),
    ("CCCCOc1c(OC)ccc2cc(CNC(=O)Cc3ccc(O)cc3)c(=O)[nH]c12", "n"),
    ("CCCCCOc1c(OC)ccc2cc(C(=O)NCCc3ccccc3F)c(=O)[nH]c12", "y"),
    ("CCCCCOc1c(OC)ccc2cc(C(=O)NCCc3ccc(F)cc3)c(=O)n(C)c12", "y"),
    ("CCCCCOc1cc2cc(C(=O)NCCN3CCOCC3)c(=O)[nH]c2cc1OC", "y"),
    ("CCCCCOc1cc2cc(C(=O)OC)c(=O)n(C)c2cc1OC", "n"),
]
